Reference source for all entries: paper PMC3826149

molecular target: glucose 6-phosphate dehydrogenase (G6PD) (Leuconostoc mesenteroides, UniProt P11411)
Sequence (P11411 whole entry): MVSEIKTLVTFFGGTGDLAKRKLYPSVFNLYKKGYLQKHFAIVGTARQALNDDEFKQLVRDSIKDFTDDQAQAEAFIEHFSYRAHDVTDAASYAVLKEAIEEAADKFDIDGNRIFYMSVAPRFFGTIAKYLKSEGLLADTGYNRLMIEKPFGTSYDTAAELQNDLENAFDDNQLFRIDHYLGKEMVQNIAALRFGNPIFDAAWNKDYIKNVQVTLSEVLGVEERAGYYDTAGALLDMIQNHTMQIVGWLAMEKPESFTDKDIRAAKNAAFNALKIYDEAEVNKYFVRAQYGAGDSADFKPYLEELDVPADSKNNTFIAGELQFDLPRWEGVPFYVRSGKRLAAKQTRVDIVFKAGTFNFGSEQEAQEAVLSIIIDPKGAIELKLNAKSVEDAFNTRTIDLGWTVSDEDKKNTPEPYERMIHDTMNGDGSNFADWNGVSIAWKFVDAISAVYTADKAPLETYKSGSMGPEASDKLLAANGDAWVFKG
pIC50: −log10 of the molar value.
Metric: pIC50

In [3]: df
Out[3]:
                                   compound  value_qualifier  assay_result
0  Oc1cc(COCc2cc(O)c(O)c(Br)c2Br)c(Br)c(Br)c1O [Compound 5]                =          6.07
1       O=Cc1cc(Br)c(O)c(Br)c1 [Compound 1]                =          4.12
2  O=C(O[C@@H]1Cc2c(O)cc(O)cc2O[C@@H]1c1cc(O)c(O)c(O)c1)c1cc(O)c(O)c(O)c1 [Epigallocatechin gallate, reference compound]                =          5.11
3         OCc1cc(O)c(O)c(Br)c1 [Compound 2]                <          3.43
4  OCc1cc(O)c(O)c(Br)c1Cc1cc(O)c(O)c(Br)c1Br [Compound 4]                =          5.40
5        COCc1cc(O)c(O)c(Br)c1 [Compound 3]                <          3.47
